# experiment notes: Inhibition of OXA-48 expressed in Escherichia coli BL21 DE3 assessed as K2/Ki ratio using CENTA as substrate by spectrophotometry
Calls of active or inactive are those of the source. The rule behind the calls is not given here.
endpoint label: Ratio

[
  {
    "molecule smiles": "O=C1N2C[C@@H](CC[C@H]2Cn2cc(CN3CCOCC3)nn2)N1OS(=O)(=O)[O-].[Na+]",
    "endpoint label": "Ratio",
    "measured": "inactive"
  },
  {
    "molecule smiles": "O=C(O)C(F)(F)F.O=C1N2C[C@@H](CC[C@H]2Cn2cc(C3CCNCC3)nn2)N1OS(=O)(=O)O",
    "endpoint label": "Ratio",
    "measured": "inactive"
  },
  {
    "molecule smiles": "CN(C)Cc1cn(C[C@@H]2CC[C@@H]3CN2C(=O)N3OS(=O)(=O)[O-])nn1.[Na+]",
    "endpoint label": "Ratio",
    "measured": "inactive"
  },
  {
    "molecule smiles": "NCCC(=O)Nc1ccc(-c2cn(C[C@@H]3CC[C@@H]4CN3C(=O)N4OS(=O)(=O)O)nn2)cc1.O=C(O)C(F)(F)F",
    "endpoint label": "Ratio",
    "measured": "inactive"
  },
  {
    "molecule smiles": "O=C1N2C[C@@H](CC[C@H]2Cn2nccn2)N1OS(=O)(=O)[O-].[Na+]",
    "endpoint label": "Ratio",
    "measured": "150 M⁻¹ s⁻¹"
  },
  {
    "molecule smiles": "C[Si](C)(C)c1cn(C[C@@H]2CC[C@@H]3CN2C(=O)N3OS(=O)(=O)[O-])nn1.[Na+]",
    "endpoint label": "Ratio",
    "measured": "inactive"
  },
  {
    "molecule smiles": "CC(C)(C)OC(=O)NCCC(=O)Nc1ccc(-c2cn(C[C@@H]3CC[C@@H]4CN3C(=O)N4OS(=O)(=O)[O-])nn2)cc1.[Na+]",
    "endpoint label": "Ratio",
    "measured": "150 M⁻¹ s⁻¹"
  },
  {
    "molecule smiles": "O=C(NC1CCNCC1)[C@@H]1CC[C@@H]2CN1C(=O)N2OS(=O)(=O)[O-].[Na+]",
    "endpoint label": "Ratio",
    "measured": "inactive"
  }
]

###

# experiment notes: Inhibition of TEM1 (unknown origin) expressed in Escherichia coli BL21 DE3 assessed as K2/Ki ratio using nitrocefin as substrate by spectrophotometry
endpoint label: Ratio (M⁻¹ s⁻¹)

[
  {
    "molecule smiles": "NCc1cn(C[C@@H]2CC[C@@H]3CN2C(=O)N3OS(=O)(=O)O)nn1.O=C(O)C(F)(F)F",
    "measured": 3100
  },
  {
    "molecule smiles": "CN(C)Cc1cn(C[C@@H]2CC[C@@H]3CN2C(=O)N3OS(=O)(=O)[O-])nn1.[Na+]",
    "measured": 780
  },
  {
    "molecule smiles": "NCCC(=O)Nc1ccc(-c2cn(C[C@@H]3CC[C@@H]4CN3C(=O)N4OS(=O)(=O)O)nn2)cc1.O=C(O)C(F)(F)F",
    "measured": 940
  },
  {
    "molecule smiles": "COCc1cn(C[C@@H]2CC[C@@H]3CN2C(=O)N3OS(=O)(=O)[O-])nn1.[Na+]",
    "measured": 830
  }
]

###

# experiment notes: Inhibition of OXA-48 expressed in Escherichia coli BL21 DE3 assessed as K2/Ki ratio using CENTA as substrate by spectrophotometry
Activity calls are given as the source filed them. The rule behind the calls is not given here.

[
  {
    "molecule": "O=C1N2C[C@@H](CC[C@H]2Cn2cc(-c3cccnc3)nn2)N1OS(=O)(=O)[O-].[Na+]",
    "Ratio": "inactive"
  },
  {
    "molecule": "O=C(O)CCc1cn(C[C@@H]2CC[C@@H]3CN2C(=O)N3OS(=O)(=O)[O-])nn1.[Na+]",
    "Ratio": "inactive"
  },
  {
    "molecule": "COCc1cn(C[C@@H]2CC[C@@H]3CN2C(=O)N3OS(=O)(=O)[O-])nn1.[Na+]",
    "Ratio": "inactive"
  },
  {
    "molecule": "O=C1N2C[C@@H](CC[C@H]2Cn2ccnn2)N1OS(=O)(=O)[O-].[Na+]",
    "Ratio": "140 M⁻¹ s⁻¹"
  },
  {
    "molecule": "NC(=O)[C@@H]1CC[C@@H]2CN1C(=O)N2OS(=O)(=O)[O-].[Na+] [AVIBACTAM SODIUM]",
    "Ratio": "980 M⁻¹ s⁻¹"
  }
]

###

Catalogue of MIC readings, one per entry.
# Tested on: Escherichia coli
# experiment notes: Antibacterial activity against Escherichia coli Top10 without harboring KPC-2 assessed as aztreonam MIC by CLSI protocol based method (reference value: 0.5 ug/ml)
# Format: functional

[
  {
    "compound": "CC(C)(C)OC(=O)N1CCC(c2cn(C[C@@H]3CC[C@@H]4CN3C(=O)N4OS(=O)(=O)[O-])nn2)CC1.[Na+]",
    "test target": "Escherichia coli",
    "MIC / µg/mL": 0.25
  },
  {
    "compound": "CC(C)(C)OC(=O)NCc1cn(C[C@@H]2CC[C@@H]3CN2C(=O)N3OS(=O)(=O)[O-])nn1.[Na+]",
    "test target": "Escherichia coli",
    "MIC / µg/mL": 0.25
  },
  {
    "compound": "O=C(O)C(F)(F)F.O=C1N2C[C@@H](CC[C@H]2Cn2cc(C3CCNCC3)nn2)N1OS(=O)(=O)O",
    "test target": "Escherichia coli",
    "MIC / µg/mL": 0.25
  },
  {
    "compound": "C[Si](C)(C)c1cn(C[C@@H]2CC[C@@H]3CN2C(=O)N3OS(=O)(=O)[O-])nn1.[Na+]",
    "test target": "Escherichia coli",
    "MIC / µg/mL": 0.5
  },
  {
    "compound": "NC(=O)[C@@H]1CC[C@@H]2CN1C(=O)N2OS(=O)(=O)[O-].[Na+] [AVIBACTAM SODIUM]",
    "test target": "Escherichia coli",
    "MIC / µg/mL": 0.25
  },
  {
    "compound": "O=C1N2C[C@@H](CC[C@H]2Cn2nccn2)N1OS(=O)(=O)[O-].[Na+]",
    "test target": "Escherichia coli",
    "MIC / µg/mL": 0.5
  },
  {
    "compound": "CC(C)(C)OC(=O)NCCC(=O)Nc1ccc(-c2cn(C[C@@H]3CC[C@@H]4CN3C(=O)N4OS(=O)(=O)[O-])nn2)cc1.[Na+]",
    "test target": "Escherichia coli",
    "MIC / µg/mL": 0.5
  }
]

###

# Test system: Enterobacter cloacae
# experiment notes: Inhibition of Enterobacter cloacae AmpC expressed in Escherichia coli BL21 DE3 assessed as K2/Ki ratio using nitrocefin as substrate by spectrophotometry
endpoint label: Ratio

[
  {
    "compound": "CN(C)Cc1cn(C[C@@H]2CC[C@@H]3CN2C(=O)N3OS(=O)(=O)[O-])nn1.[Na+]",
    "test target": "Enterobacter cloacae",
    "measured": "20 M⁻¹ s⁻¹"
  },
  {
    "compound": "O=C(NC1CCNCC1)[C@@H]1CC[C@@H]2CN1C(=O)N2OS(=O)(=O)[O-].[Na+]",
    "test target": "Enterobacter cloacae",
    "measured": "15000 M⁻¹ s⁻¹"
  },
  {
    "compound": "O=C1N2C[C@@H](CC[C@H]2Cn2cc(CN3CCOCC3)nn2)N1OS(=O)(=O)[O-].[Na+]",
    "test target": "Enterobacter cloacae",
    "measured": "31 M⁻¹ s⁻¹"
  },
  {
    "compound": "COCc1cn(C[C@@H]2CC[C@@H]3CN2C(=O)N3OS(=O)(=O)[O-])nn1.[Na+]",
    "test target": "Enterobacter cloacae",
    "measured": "15 M⁻¹ s⁻¹"
  },
  {
    "compound": "NC(=O)[C@@H]1CC[C@@H]2CN1C(=O)N2OS(=O)(=O)[O-].[Na+] [AVIBACTAM SODIUM]",
    "test target": "Enterobacter cloacae",
    "measured": "18000 M⁻¹ s⁻¹"
  },
  {
    "compound": "O=C(O)CCc1cn(C[C@@H]2CC[C@@H]3CN2C(=O)N3OS(=O)(=O)[O-])nn1.[Na+]",
    "test target": "Enterobacter cloacae",
    "measured": "99 M⁻¹ s⁻¹"
  },
  {
    "compound": "O=C1N2C[C@@H](CC[C@H]2Cn2cc(-c3cccnc3)nn2)N1OS(=O)(=O)[O-].[Na+]",
    "test target": "Enterobacter cloacae",
    "measured": "85 M⁻¹ s⁻¹"
  },
  {
    "compound": "C[Si](C)(C)c1cn(C[C@@H]2CC[C@@H]3CN2C(=O)N3OS(=O)(=O)[O-])nn1.[Na+]",
    "test target": "Enterobacter cloacae",
    "measured": "24 M⁻¹ s⁻¹"
  },
  {
    "compound": "O=C1N2C[C@@H](CC[C@H]2Cn2ccnn2)N1OS(=O)(=O)[O-].[Na+]",
    "test target": "Enterobacter cloacae",
    "measured": "210 M⁻¹ s⁻¹"
  },
  {
    "compound": "NCc1cn(C[C@@H]2CC[C@@H]3CN2C(=O)N3OS(=O)(=O)O)nn1.O=C(O)C(F)(F)F",
    "test target": "Enterobacter cloacae",
    "measured": "16 M⁻¹ s⁻¹"
  },
  {
    "compound": "CC(C)(C)OC(=O)NCCC(=O)Nc1ccc(-c2cn(C[C@@H]3CC[C@@H]4CN3C(=O)N4OS(=O)(=O)[O-])nn2)cc1.[Na+]",
    "test target": "Enterobacter cloacae",
    "measured": "180 M⁻¹ s⁻¹"
  },
  {
    "compound": "O=C(O)C(F)(F)F.O=C1N2C[C@@H](CC[C@H]2Cn2cc(C3CCNCC3)nn2)N1OS(=O)(=O)O",
    "test target": "Enterobacter cloacae",
    "measured": "26 M⁻¹ s⁻¹"
  },
  {
    "compound": "NCCC(=O)Nc1ccc(-c2cn(C[C@@H]3CC[C@@H]4CN3C(=O)N4OS(=O)(=O)O)nn2)cc1.O=C(O)C(F)(F)F",
    "test target": "Enterobacter cloacae",
    "measured": "28 M⁻¹ s⁻¹"
  },
  {
    "compound": "CC(C)(C)OC(=O)NCc1cn(C[C@@H]2CC[C@@H]3CN2C(=O)N3OS(=O)(=O)[O-])nn1.[Na+]",
    "test target": "Enterobacter cloacae",
    "measured": "51 M⁻¹ s⁻¹"
  },
  {
    "compound": "O=C1N2C[C@@H](CC[C@H]2Cn2nccn2)N1OS(=O)(=O)[O-].[Na+]",
    "test target": "Enterobacter cloacae",
    "measured": "200 M⁻¹ s⁻¹"
  },
  {
    "compound": "CC(C)(C)OC(=O)N1CCC(c2cn(C[C@@H]3CC[C@@H]4CN3C(=O)N4OS(=O)(=O)[O-])nn2)CC1.[Na+]",
    "test target": "Enterobacter cloacae",
    "measured": "29 M⁻¹ s⁻¹"
  },
  {
    "compound": "O=C1N2C[C@@H](CC[C@H]2Cn2cc(-c3ccccc3)nn2)N1OS(=O)(=O)[O-].[Na+]",
    "test target": "Enterobacter cloacae",
    "measured": "200 M⁻¹ s⁻¹"
  }
]
